target.entity: eTau1b (UniProt P10636)
assay.text: relative binding affinity, method not named; eTau 1b
measurement.kind: pKd
Give bare numbers, as −log10 of the molar value.

Completed entries (count: 9):
{"binder": "humanized IPN002 variant VH2/Vk2 (antibody, V domains shown) VH: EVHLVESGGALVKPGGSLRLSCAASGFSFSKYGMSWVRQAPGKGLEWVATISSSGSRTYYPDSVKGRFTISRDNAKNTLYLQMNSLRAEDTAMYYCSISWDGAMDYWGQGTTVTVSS VL: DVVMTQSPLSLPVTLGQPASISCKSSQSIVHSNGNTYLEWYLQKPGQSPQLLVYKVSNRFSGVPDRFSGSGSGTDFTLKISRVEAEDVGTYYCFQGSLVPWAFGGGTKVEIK", "pKd": 9.64}
{"binder": "humanized IPN002 variant VH2/Vk4 (antibody, V domains shown) VH: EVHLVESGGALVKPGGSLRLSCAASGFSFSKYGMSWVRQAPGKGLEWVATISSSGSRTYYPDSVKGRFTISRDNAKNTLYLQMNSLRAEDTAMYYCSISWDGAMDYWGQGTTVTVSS VL: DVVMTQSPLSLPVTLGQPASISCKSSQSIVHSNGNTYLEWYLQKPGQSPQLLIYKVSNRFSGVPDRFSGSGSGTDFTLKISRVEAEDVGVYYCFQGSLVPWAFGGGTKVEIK", "pKd": 9.28}
{"binder": "humanized IPN002 variant VH3/Vk1 (antibody, V domains shown) VH: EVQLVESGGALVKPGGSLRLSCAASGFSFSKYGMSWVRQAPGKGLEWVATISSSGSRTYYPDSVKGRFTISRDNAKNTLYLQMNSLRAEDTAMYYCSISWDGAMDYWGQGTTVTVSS VL: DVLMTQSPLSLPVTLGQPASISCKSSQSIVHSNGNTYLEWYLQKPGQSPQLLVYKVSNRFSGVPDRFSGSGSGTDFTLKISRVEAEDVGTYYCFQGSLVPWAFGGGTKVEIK", "pKd": 9.28}
{"binder": "humanized IPN002 variant VH4/Vk3 (antibody, V domains shown) VH: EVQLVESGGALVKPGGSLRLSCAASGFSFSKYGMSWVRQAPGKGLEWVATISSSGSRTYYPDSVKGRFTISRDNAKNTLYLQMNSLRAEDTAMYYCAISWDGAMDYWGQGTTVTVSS VL: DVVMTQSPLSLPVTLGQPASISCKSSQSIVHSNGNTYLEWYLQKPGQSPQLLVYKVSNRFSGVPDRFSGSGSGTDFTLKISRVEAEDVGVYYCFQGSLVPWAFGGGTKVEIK", "pKd": 9.50}
{"binder": "humanized IPN002 variant VH1/Vk2 (antibody, V domains shown) VH: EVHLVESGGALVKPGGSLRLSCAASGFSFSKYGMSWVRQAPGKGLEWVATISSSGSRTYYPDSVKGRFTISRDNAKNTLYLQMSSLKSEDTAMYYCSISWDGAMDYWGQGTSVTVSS VL: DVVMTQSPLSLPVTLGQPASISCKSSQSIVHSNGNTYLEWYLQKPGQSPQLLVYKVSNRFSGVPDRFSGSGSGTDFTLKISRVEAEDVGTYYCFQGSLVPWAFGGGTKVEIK", "pKd": 9.25}
{"binder": "humanized IPN002 variant VH2/Vk1 (antibody, V domains shown) VH: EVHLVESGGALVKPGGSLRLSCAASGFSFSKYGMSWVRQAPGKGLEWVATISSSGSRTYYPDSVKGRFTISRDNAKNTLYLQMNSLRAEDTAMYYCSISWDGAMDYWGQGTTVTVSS VL: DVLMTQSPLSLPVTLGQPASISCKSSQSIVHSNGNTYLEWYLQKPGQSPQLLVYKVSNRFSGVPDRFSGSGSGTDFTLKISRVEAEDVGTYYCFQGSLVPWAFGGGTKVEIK", "pKd": 9.67}
{"binder": "humanized IPN002 variant VH3/Vk2 (antibody, V domains shown) VH: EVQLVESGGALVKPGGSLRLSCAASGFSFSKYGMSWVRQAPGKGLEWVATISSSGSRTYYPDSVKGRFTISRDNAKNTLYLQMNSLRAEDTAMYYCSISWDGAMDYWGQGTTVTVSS VL: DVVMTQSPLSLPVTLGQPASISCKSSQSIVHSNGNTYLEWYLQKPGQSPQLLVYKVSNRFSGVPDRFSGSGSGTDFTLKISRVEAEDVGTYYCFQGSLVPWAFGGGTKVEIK", "pKd": 9.21}
{"binder": "humanized IPN002 variant VH3/Vk4 (antibody, V domains shown) VH: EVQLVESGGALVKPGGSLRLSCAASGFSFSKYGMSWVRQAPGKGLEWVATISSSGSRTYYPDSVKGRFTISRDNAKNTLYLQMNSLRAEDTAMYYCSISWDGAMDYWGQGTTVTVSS VL: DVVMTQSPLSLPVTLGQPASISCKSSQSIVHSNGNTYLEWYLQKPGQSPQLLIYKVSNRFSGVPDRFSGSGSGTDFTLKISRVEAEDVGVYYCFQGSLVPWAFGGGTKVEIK", "pKd": 9.42}
{"binder": "humanized IPN002 variant VH4/Vk4 (antibody, V domains shown) VH: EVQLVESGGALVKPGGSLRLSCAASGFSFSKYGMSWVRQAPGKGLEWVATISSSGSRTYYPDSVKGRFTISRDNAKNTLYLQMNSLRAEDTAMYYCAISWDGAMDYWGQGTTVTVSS VL: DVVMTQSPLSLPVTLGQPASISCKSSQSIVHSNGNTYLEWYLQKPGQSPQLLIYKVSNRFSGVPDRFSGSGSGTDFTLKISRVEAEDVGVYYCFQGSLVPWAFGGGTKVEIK", "pKd": 9.27}

Pending binder:
Enquiry: Recorded pKd of humanized IPN002 variant VH2/Vk3 (antibody, V domains shown) VH: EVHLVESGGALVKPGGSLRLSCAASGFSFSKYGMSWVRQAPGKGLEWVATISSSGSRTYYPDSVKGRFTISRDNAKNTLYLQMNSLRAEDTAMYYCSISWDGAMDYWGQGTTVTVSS VL: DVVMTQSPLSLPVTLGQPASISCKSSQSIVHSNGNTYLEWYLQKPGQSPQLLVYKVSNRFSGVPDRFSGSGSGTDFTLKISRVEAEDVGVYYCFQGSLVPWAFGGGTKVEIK , please.
Return: 9.54
